Biological target: PI3Kδ (p110δ/p85α) Recombinant Human Protein (Homo sapiens (Human), UniProt O00329)
Sequence (O00329 whole entry): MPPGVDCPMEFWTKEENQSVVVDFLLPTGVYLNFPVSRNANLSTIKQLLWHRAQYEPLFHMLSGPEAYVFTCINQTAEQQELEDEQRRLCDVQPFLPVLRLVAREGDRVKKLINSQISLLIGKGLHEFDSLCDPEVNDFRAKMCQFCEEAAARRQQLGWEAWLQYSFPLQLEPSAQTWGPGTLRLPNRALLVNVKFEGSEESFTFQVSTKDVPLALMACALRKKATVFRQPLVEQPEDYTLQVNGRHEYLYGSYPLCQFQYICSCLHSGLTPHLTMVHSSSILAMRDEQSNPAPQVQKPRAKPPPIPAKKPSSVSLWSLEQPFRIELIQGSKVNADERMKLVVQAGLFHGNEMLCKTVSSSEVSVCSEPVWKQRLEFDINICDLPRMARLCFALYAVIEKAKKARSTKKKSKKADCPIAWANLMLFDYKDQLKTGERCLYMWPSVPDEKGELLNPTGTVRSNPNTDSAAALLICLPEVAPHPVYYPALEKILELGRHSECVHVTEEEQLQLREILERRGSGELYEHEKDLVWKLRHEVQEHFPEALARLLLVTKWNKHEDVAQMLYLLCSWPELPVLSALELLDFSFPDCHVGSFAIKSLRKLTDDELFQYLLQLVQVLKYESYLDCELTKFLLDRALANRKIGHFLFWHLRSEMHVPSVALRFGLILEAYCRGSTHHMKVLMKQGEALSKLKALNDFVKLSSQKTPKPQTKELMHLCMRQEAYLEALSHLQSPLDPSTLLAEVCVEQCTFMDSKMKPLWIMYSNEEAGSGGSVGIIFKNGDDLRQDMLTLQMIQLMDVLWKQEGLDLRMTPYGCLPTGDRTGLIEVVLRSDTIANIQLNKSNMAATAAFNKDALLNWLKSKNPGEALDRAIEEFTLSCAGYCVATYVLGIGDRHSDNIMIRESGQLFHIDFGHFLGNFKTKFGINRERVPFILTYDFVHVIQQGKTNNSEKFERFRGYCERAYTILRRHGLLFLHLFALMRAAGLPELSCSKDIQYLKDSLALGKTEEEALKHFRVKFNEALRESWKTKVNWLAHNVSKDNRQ
Sequence (P27986 whole entry partner): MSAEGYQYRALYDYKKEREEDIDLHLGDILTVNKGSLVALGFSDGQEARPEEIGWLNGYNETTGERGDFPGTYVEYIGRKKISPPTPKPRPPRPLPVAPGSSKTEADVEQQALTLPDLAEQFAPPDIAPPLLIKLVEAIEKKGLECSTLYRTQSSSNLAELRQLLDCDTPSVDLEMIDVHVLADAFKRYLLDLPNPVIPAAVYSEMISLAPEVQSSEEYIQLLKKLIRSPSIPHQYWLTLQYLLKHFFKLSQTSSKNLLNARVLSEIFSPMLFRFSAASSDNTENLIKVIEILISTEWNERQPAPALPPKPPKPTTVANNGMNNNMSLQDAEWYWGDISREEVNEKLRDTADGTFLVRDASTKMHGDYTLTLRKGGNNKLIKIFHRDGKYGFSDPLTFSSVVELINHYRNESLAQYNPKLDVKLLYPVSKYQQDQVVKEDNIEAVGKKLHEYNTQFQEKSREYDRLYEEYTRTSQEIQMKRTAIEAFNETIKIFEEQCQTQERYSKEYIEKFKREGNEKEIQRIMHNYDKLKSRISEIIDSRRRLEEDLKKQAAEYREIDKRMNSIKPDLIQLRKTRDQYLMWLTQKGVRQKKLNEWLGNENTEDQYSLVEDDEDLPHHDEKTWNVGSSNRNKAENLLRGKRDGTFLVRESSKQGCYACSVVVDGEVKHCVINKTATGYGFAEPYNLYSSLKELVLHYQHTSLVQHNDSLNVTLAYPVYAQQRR
Test: PI3Kδ Scintillation Proximity Assay
Conditions: read-out: PI3K-delta SPA IC50
Counter-ions that a name gives are not always drawn.
Parameter IC50: see the listing below.

Here are 5 compounds together with their reported answers.
compound="Cc1[nH]c(-c2cc(-c3cncc(N4CCOCC4)c3)ccn2)nc1CN[C@@H]1CCOC1 [Example 287]" study_system="PI3Kδ (p110δ/p85α) Recombinant Human Protein (Homo sapiens (Human), UniProt O00329)" result="≤ 0.5 µM"
compound="CC(=O)N1CCC(c2c[nH]c(-c3cc(-c4cnn(Cc5ccc(Cl)cc5)c4)ccn3)n2)C1 (stereo not shown) [Example 301, trifluoroacetate salt]" study_system="PI3Kδ (p110δ/p85α) Recombinant Human Protein (Homo sapiens (Human), UniProt O00329)" result="> 0.5 µM"
compound="Cc1nc(-c2cc(-c3cncc(C(=O)N4CC[C@@H](O)C4)c3)ccn2)[nH]c1C [Example 163, trifluoroacetate salt]" study_system="PI3Kδ (p110δ/p85α) Recombinant Human Protein (Homo sapiens (Human), UniProt O00329)" result="≤ 0.05 µM"
compound="Cc1nc(-c2cc(C3=CCCN(Cc4ccc(Cl)cc4)C3)ccn2)[nH]c1C [Example 224, trifluoroacetate salt]" study_system="PI3Kδ (p110δ/p85α) Recombinant Human Protein (Homo sapiens (Human), UniProt O00329)" result="> 0.5 µM"
compound="Cc1nc(-c2cc(-c3cncc(N)c3)ccn2)[nH]c1C [Example 129]" study_system="PI3Kδ (p110δ/p85α) Recombinant Human Protein (Homo sapiens (Human), UniProt O00329)" result="≤ 0.5 µM"

Asked: Tell me the measured IC50 of CCN(C)C(=O)c1cncc(-c2ccnc(-c3nc(C)c(C)[nH]3)c2)c1 [Example 198, trifluoroacetate salt] , please.
Given back: ≤ 0.05 µM

Asked: Tell me the measured IC50 of COc1cncc(-c2ccnc(-c3nc(C)c(C)[nH]3)c2)c1 [Example 76] , please.
Given back: ≤ 0.1 µM

====

Target: PI3Kγ (p110γ) Recombinant Human Protein (Homo sapiens (Human), UniProt P48736)
Sequence (P48736 whole entry): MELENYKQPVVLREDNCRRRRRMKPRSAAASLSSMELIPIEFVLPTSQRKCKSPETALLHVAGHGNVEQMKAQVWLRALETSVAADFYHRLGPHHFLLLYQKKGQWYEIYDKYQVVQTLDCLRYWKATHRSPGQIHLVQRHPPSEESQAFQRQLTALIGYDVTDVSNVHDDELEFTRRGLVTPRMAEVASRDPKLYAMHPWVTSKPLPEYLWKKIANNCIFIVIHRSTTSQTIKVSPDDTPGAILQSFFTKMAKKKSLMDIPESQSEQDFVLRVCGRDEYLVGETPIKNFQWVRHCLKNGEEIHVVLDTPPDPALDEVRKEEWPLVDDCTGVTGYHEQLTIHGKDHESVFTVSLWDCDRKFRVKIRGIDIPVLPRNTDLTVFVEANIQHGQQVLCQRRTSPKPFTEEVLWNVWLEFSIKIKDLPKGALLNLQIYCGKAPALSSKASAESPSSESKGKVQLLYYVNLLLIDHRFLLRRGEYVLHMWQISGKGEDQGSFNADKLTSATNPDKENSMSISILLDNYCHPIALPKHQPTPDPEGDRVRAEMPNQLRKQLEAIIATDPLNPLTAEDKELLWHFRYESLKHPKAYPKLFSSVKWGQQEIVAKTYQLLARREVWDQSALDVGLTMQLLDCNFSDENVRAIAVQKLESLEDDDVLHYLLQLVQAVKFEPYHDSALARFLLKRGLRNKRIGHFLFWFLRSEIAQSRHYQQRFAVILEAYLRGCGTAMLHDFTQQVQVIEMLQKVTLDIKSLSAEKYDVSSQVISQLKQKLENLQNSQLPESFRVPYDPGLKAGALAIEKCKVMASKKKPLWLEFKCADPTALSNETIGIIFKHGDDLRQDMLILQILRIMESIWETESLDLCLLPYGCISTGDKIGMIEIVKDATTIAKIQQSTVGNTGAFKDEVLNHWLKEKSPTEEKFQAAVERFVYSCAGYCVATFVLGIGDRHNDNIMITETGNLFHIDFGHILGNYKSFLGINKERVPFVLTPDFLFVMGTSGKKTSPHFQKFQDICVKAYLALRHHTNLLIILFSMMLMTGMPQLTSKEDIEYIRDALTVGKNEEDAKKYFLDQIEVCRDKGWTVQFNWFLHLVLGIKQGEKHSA
Experiment: PI3K-γ Scintillation Proximity Assay
Settings: read-out: PI3K-gamma SPA IC50
Counter-ions that a name gives are not always drawn.
endpoint.label: IC50

Here are 8 molecules together with their reported answers.
molecule="CCCn1cc(-c2ccnc(-c3ncc(-c4ccccc4)[nH]3)c2)cn1 [Example 12, trifluoroacetate salt]" study_system="PI3Kγ (p110γ) Recombinant Human Protein (Homo sapiens (Human), UniProt P48736)" result="≤ 500 nM"
molecule="Cc1nc(-c2cc(-c3cncc(N)c3)ccn2)[nH]c1C [Example 129]" study_system="PI3Kγ (p110γ) Recombinant Human Protein (Homo sapiens (Human), UniProt P48736)" result="≤ 100 nM"
molecule="O=C(Nc1cncc(-c2ccnc(-c3ncc(-c4ccccc4)[nH]3)c2)c1)c1ccc(Cl)cc1 [Example 135]" study_system="PI3Kγ (p110γ) Recombinant Human Protein (Homo sapiens (Human), UniProt P48736)" result="> 500 nM"
molecule="Cc1nc(-c2cc(-c3cncc(C(=O)N(C)Cc4ccccc4)c3)ccn2)[nH]c1C [Example 193, trifluoroacetate salt]" study_system="PI3Kγ (p110γ) Recombinant Human Protein (Homo sapiens (Human), UniProt P48736)" result="≤ 50 nM"
molecule="Cc1nc(-c2cc(-c3cncc(N4CC[C@H](O)C4)c3)ccn2)[nH]c1C [Example 232]" study_system="PI3Kγ (p110γ) Recombinant Human Protein (Homo sapiens (Human), UniProt P48736)" result="≤ 100 nM"
molecule="Cc1nc(-c2cc(-c3cncc(C(=O)NCCCN(C)C)c3)ccn2)[nH]c1C [Example 149]" study_system="PI3Kγ (p110γ) Recombinant Human Protein (Homo sapiens (Human), UniProt P48736)" result="≤ 100 nM"
molecule="Cc1nc(-c2cc(C3=CCCN(CC4CCOCC4)C3)ccn2)[nH]c1C [Example 225, trifluoroacetate salt]" study_system="PI3Kγ (p110γ) Recombinant Human Protein (Homo sapiens (Human), UniProt P48736)" result="> 500 nM"
molecule="c1ccc(-c2cnc(-c3cc(-c4cncc(N5CCOCC5)c4)ccn3)[nH]2)cc1 [Example 18, trifluoroacetate salt]" study_system="PI3Kγ (p110γ) Recombinant Human Protein (Homo sapiens (Human), UniProt P48736)" result="≤ 50 nM"

Asked: Tell me the measured IC50 of CCc1cnc(-c2cc(-c3cncc(OC)c3)ccn2)[nH]1 [Example 85, trifluoroacetate salt] , please.
Given back: ≤ 500 nM

Asked: Tell me the measured IC50 of Cc1nc(-c2cc(-c3cncc(C(=O)N4CCC4)c3)ccn2)[nH]c1C [Example 191, trifluoroacetate salt] , please.
Given back: ≤ 50 nM

Asked: Tell me the measured IC50 of CC(=O)N1CCC(c2c[nH]c(-c3cc(-c4cnn(Cc5ccc(Cl)cc5)c4)ccn3)n2)C1 (stereo not drawn) [Example 301, trifluoroacetate salt] , please.
Given back: ≤ 500 nM

Asked: Tell me the measured IC50 of CO[C@H]1CCN(C(=O)c2cncc(-c3ccnc(-c4nc(C)c(C)[nH]4)c3)c2)C1 [Example 212B, trifluoroacetate salt] , please.
Given back: ≤ 50 nM

Asked: Tell me the measured IC50 of CC(=O)N1CC=C(c2cncc(-c3ccnc(-c4nc(C)c(C)[nH]4)c3)c2)C1 [Example 238] , please.
Given back: > 500 nM

Asked: Tell me the measured IC50 of Cc1nc(-c2cc(-c3cncc(C(=O)N4CCCCC4C)c3)ccn2)[nH]c1C (racemic) [Example 190, trifluoroacetate salt] , please.
Given back: ≤ 50 nM

Asked: Tell me the measured IC50 of NC(=O)Cn1cc(-c2ccnc(-c3ncc(-c4ccccc4)[nH]3)c2)cn1 [Example 48, trifluoroacetate salt] , please.
Given back: > 500 nM
